Data origin: paper doi:10.1101/2025.02.17.637997

- experimental_system: recombinant full-length CHIP-G132N (UniProt Q9UNE7 1-303, G132N)
- Sequence (Q9UNE7 whole entry G132N): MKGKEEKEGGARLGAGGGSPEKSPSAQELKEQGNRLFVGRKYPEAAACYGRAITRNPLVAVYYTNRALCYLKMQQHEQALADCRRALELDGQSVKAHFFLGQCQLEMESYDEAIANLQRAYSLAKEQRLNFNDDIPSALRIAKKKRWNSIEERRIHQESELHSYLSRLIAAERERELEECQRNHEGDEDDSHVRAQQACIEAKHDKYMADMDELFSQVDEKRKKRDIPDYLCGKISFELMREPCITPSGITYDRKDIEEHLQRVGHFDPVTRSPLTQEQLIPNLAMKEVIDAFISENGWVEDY
- assay_details: FP
pKd: −log10 of the molar value. Square brackets hold non-standard residues; d marks the D form. Ends that are not written are not given here. * marks the point of attachment. FITC = O=C1OC2(c3ccc(O)cc3Oc3cc(O)ccc32)c2ccc(NC(=S)*)cc21; pT = C[C@@H](OP(=O)(O)O)[C@H](N)C(=O)O; Ahx = NCCCCCC(=O)O
assay_readout: pKd

* {FITC-Ahx}-GSGP[pT]IEEVD (tracer of the fluorescence polarisation assay; also called pEEVD; phosphorylated EEVD peptide; source: synthetic peptide (Lifetein or Genscript)) [N-FITC-Ahx-GSGP(pT)IEEVD] | 4.02
* {FITC-Ahx}-GSGPTIEEVD (C-terminal tail of HSP70; tracer of the fluorescence polarisation assay; also called HSP70 peptide tracer; source: synthetic peptide (Lifetein or Genscript)) [N-FITC-Ahx-GSGPTIEEVD] | 5.04
